Ref: patent EP1803452A1

Assay: Metabolic stability test in liver S9
Format: in vitro ADME
Condition Details: pH 7.4; unchanged form after 60 minutes at 37°C, human liver S9 2 mg protein/mL, LC/MS; read-out: Remaining rate in human liver S9 (%/60min)
Observed Property: remaining at 1 h

>>> recorded_value("COC(=O)c1ccc(OC(=O)CCCc2ccc(NC(=O)c3ccc(C)nc3-c3ccc(C(F)(F)F)cc3)c(C(=O)N(C)C)c2)cc1")
"0%"

Need remaining at 1 h of `COC(=O)c1cc(C)c(OC(=O)CCCc2ccc(NC(=O)c3ccc(C)nc3-c3ccc(C(F)(F)F)cc3)c(C(=O)N(C)C)c2)c(C(F)(F)F)c1` , thanks.
2%

Repeat for the following molecule: `CC(C)OC(=O)c1ccc(OC(=O)CCCc2ccc(NC(=O)c3cccnc3-c3ccc(C(F)(F)F)cc3)c(C(=O)N(C)C)c2)cc1`
0%

Repeat for the following molecule: `CN(C)C(=O)c1cc(CCCC(=O)Oc2ccc(C#N)cc2)ccc1NC(=O)c1ccccc1-c1ccc(C(F)(F)F)cc1`
0%

Repeat for the following molecule: `CC(C)OC(=O)COC(=O)c1ccc(OC(=O)CCCc2ccc(NC(=O)c3ccccc3-c3ccc(C(F)(F)F)cc3)c(C(=O)N(C)C)c2)cc1`
0%

Repeat for the following molecule: `CCOC(=O)c1ccc(OC(=O)CCCc2ccc(NC(=O)c3ccccc3-c3ccc(C(F)(F)F)cc3)c(C(=O)N(C)C)c2)cc1`
0%

Repeat for the following molecule: `CN(C)C(=O)c1cc(CCCC(=O)Oc2ccc(-c3nnn(C)n3)cc2)ccc1NC(=O)c1ccccc1-c1ccc(C(F)(F)F)cc1`
0%

Repeat for the following molecule: `COC(=O)c1ccc(OC(=O)CCCc2ccc(NC(=O)c3ccccc3-c3ccc(C(=O)OC)cc3)c(C(=O)N(C)C)c2)cc1`
0%

Repeat for the following molecule: `CN(C)C(=O)c1cc(CCCC(=O)Oc2ccc(C(=O)OCc3ccccn3)cc2)ccc1NC(=O)c1ccccc1-c1ccc(C(F)(F)F)cc1`
0%

Repeat for the following molecule: `CN(C)C(=O)c1cc(CCCC(=O)Oc2ccc(C(=O)OCCCOCc3ccccc3)cc2)ccc1NC(=O)c1ccccc1-c1ccc(C(F)(F)F)cc1`
0%

Repeat for the following molecule: `CN(C)C(=O)c1cc(CCCC(=O)Oc2ccc(C(=O)OCCCO)cc2)ccc1NC(=O)c1ccccc1-c1ccc(C(F)(F)F)cc1`
0%

Repeat for the following molecule: `COc1cc(C(=O)OC(C)C)cc(F)c1OC(=O)CCCc1ccc(NC(=O)c2ccc(C)nc2-c2ccc(C(F)(F)F)cc2)c(C(=O)N(C)C)c1`
2%

Repeat for the following molecule: `COC(=O)c1ccc(-c2nc(C)ccc2C(=O)Nc2ccc(CCCC(=O)Oc3c(C)cc(C(=O)OC)cc3Cl)cc2C(=O)N(C)C)cc1`
0%

Repeat for the following molecule: `CN(C)C(=O)c1cc(CCCC(=O)Oc2ccc(C(=O)OCc3ccc(Cl)cc3)cc2)ccc1NC(=O)c1ccccc1-c1ccc(C(F)(F)F)cc1`
4%

Repeat for the following molecule: `COC(=O)c1cc(C)c(OC(=O)CCCc2ccc(NC(=O)c3ccccc3-c3ccc(C(F)(F)F)cc3)c(C(=O)N(C)C)c2)c(C)c1`
4%
